System: wheat
Assay: Test A preemergence
Format: in vivo, Triticum aestivum
Conditions: preemergence, 125 g ai/ha, visual injury approx. 10 days after treatment
MEASUREMENT TYPE: Wheat plant response rating (0 to 100 scale)
Returns: the value as a bare number; no unit string appended.

Some solved cases for reference:
CCc1cc(C(=O)NN(C)C)nn1Cc1ccnc(C(F)(F)F)c1
0
CCCCNC(=O)c1cc(Cl)n(Cc2cccc(C(F)(F)F)c2)n1
0
CCCc1cc(C(=O)Nc2ccc(F)cc2)nn1Cc1cc(C(F)(F)F)nn1C
0
CCCNC(=O)c1cc(CCCl)n(Cc2ccnc(C(F)(F)F)c2)n1
40

Please look at the following molecule next.
Asked: Request the reported Wheat plant response rating (0 to 100 scale) associated with CCNC(=O)c1cc(CC)n(Cc2ccnc(C(F)(F)F)c2)n1
Given back: 20

====

Tested on: foxtail, giant
Experiment: Test C postemergence
Format: in vivo, Setaria faberii
Settings: postemergence; 125 g ai/ha; scale 0 to 100, 0 no effect, 100 complete control
Plant response rating, Foxtail, Giant by entry:
Returns: the value as a bare number; no unit string appended.

Some solved cases for reference:
CCCc1cc(C(=O)NCC)nn1Cc1cc(C(F)(F)F)nn1C
35
CCc1cc(C(=O)NC2CC2)nn1Cc1ccnc(OC(F)F)c1
55
Cc1cc(C(=O)NC(C)C)nn1Cc1ccnc(C(F)(F)F)c1
5
CCc1cc(C(=O)NC2CC2)nn1Cc1ccnc(OCC(F)(F)F)c1
15
CCCNC(=O)c1cc(CCC)n(Cc2cc(C(F)(F)F)nn2C)n1
15

Asked: GET /values?readout=Plant response rating, Foxtail, Giant&system=foxtail, giant&item= CCOc1cc(C(=O)NC(C)C)nn1Cc1ccnc(C(F)(F)F)c1
Given back: 60

====

Crabgrass, Large plant response rating by entry:
Tested on: crabgrass, large
Assay: Test A postemergence
Assay type: in vivo, Digitaria sanguinalis
Conditions: Postemergence, 500 g ai/ha; 0 to 100 scale (0 no effect, 100 complete control)
Returns: the value as a bare number; no unit string appended.

CCNC(=O)c1cc(CC)n(Oc2cccc(OC(F)(F)F)c2)n1
70
CCCNC(=O)c1cc(C)n(Cc2ccnc(C(F)(F)F)c2)n1
90
CCONC(=O)c1cc(OCC)n(Cc2ccnc(C(F)(F)F)c2)n1
100
CCCc1cc(C(=O)NCC)nn1Cc1cc(C(F)(F)F)nn1C
90

Please look at the following compound next.
Asked: Request the reported Crabgrass, Large plant response rating associated with CCCCNC(=O)c1cc(Cl)n(Cc2cccc(C(F)(F)F)c2)n1
Given back: 30

====

Tested on: ragweed
Assay: Test C preemergence
Format: in vivo, Ambrosia elation
Conditions: preemergence, 31 g ai/ha; visual rating, scale 0 to 100 (0 no effect, 100 complete control), 13 to 15 days
Description: […]
Label scheme for Ragweed plant response rating: lower than 90 is criterion not met, 90 and above is criterion met.

As a guide, the following entries are already answered.
CCOc1cc(C(=O)NCC(F)(F)F)nn1Cc1ccnc(C(F)(F)F)c1
criterion met
CCCc1cc(C(=O)NCC)nn1Cc1ccnc(C(F)(F)F)c1
criterion not met
CCc1cc(C(=O)NC(C)C)nn1Cc1ccnc(C(F)(F)F)c1
criterion not met

Asked: Kindly determine if Ragweed plant response rating recorded for CCc1cc(C(=O)NCC2CC2)nn1Cc1ccnc(C(F)(F)F)c1 is above or exactly 90.
Given back: criterion not met

Asked: Kindly determine if Ragweed plant response rating recorded for CCc1cc(C(=O)NC2CC2)nn1Cc1ccnc(OC(F)F)c1 is above or exactly 90.
Given back: criterion met

Asked: Kindly determine if Ragweed plant response rating recorded for CCCc1cc(C(=O)NCC(F)(F)F)nn1Cc1ccnc(C(F)(F)F)c1 is above or exactly 90.
Given back: criterion met
